System: MKNK1 (human), Q9BUB5 [T385D; 165-205 del]
Sequence (Q9BUB5 whole entry, looked up, stated change not applied): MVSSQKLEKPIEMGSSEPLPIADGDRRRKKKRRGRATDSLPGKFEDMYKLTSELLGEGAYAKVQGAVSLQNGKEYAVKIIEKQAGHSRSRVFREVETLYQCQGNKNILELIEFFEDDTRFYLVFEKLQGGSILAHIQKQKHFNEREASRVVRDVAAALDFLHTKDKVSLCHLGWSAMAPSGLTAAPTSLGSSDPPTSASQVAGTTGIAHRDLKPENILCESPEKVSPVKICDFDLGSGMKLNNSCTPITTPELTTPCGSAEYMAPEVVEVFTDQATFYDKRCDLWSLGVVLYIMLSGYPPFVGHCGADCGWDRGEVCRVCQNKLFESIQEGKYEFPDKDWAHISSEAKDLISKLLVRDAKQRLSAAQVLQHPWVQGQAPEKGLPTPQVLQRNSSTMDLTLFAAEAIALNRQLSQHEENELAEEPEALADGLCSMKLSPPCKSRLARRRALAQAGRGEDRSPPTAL
Test: radiometric filter-binding kinase assay, Kinase HotSpot
Conditions: compound 0.5 µM; ATP 10 µM
# residual activity listing for each entry below
A complete answer gives the number and then names the unit.

Solved entries:
INSERT INTO assay_data (structurestring, testedtarget, result) VALUES
  ('O=C1NC(=O)c2c1c1c3ccccc3[nH]c1c1[nH]c3cc(Br)ccc3c21', 'MKNK1 (human), Q9BUB5 [T385D; 165-205 del]', '81.5%'),
  ('Nc1ncnc2c1c(-c1ccc(Oc3ccccc3)cc1)cn2C1CCCC1', 'MKNK1 (human), Q9BUB5 [T385D; 165-205 del]', '109%');

Give its residual activity value. Item: COc1cc2ncnc(Nc3ccc(OCc4ccccc4)cc3)c2cc1OC
101%
